Biological target: human 5-HT1A receptor (Homo sapiens (Human))
Test: Test 2: binding activity to human 5-HT1A receptor ([3H] 8-OH-DPAT, CHO cell membrane)
Settings: [3H] 8-OH-DPAT; read-out: 5-HT1A binding affinity (Ki value)
Ki under 20 nM gets Fulfilled, anything at or over 20 nM gets Not fulfilled.

stdin: Please check: Ki for `Cc1cccc(C2CCN(CCNC(=O)C3CCC(F)(F)CC3)CC2)n1` , strictly under 20 nM or not?
stdout: Fulfilled

stdin: Please check: Ki for `O=C(NCCN1CCC(c2cccc(C(F)(F)F)n2)CC1)C1CCOCC1` , strictly under 20 nM or not?
stdout: Fulfilled

stdin: Please check: Ki for `CNc1cccc(C2CCN(CCNC(=O)C3CCOCC3)CC2)n1` , strictly under 20 nM or not?
stdout: Not fulfilled

Next item in the queue.
stdin: Please check: Ki for `O=C(NCCN1CCC(c2cccc(OC(F)(F)F)n2)CC1)C1CCOCC1` , strictly under 20 nM or not?
stdout: Not fulfilled

###

Molecular target: UniProt:P21917
Experiment: Test 1: agonistic activity for human D4 receptor (aequorin/Gα16 luminescence in CHO-K1 cell)
Details: CHO-K1 cell, aequorin luminescence
Procedure: Test 1: Evaluation of Agonistic Activity for Human 5-HT1A Receptor and Human D4 Receptor Aequorin, Gα16 proteins, and each receptor were transiently expressed in CHO-K1 cell (Chinese hamster ovary), and seeded to 384-well plate. The plate was incubated in a CO2 incubator at 37° C. for 24 hours. Each example compound dissolved in DMSO was added thereto, and the change of luminescence amount was measured with Hamamatsu FDSS/μCELL System (Hamamatsu Photonics).
EC50 under 40 nM gets satisfied, anything at or over 40 nM gets not satisfied.

stdin: Please check: EC50 for COCC(C)(C)C(=O)NCCN1CCC(c2cccc(C(F)(F)F)n2)CC1 [Example 6] , strictly under 40 nM or not?
stdout: satisfied

###

Molecular target: human D2 receptor (Homo sapiens (Human))
Sequence (P14416 whole entry): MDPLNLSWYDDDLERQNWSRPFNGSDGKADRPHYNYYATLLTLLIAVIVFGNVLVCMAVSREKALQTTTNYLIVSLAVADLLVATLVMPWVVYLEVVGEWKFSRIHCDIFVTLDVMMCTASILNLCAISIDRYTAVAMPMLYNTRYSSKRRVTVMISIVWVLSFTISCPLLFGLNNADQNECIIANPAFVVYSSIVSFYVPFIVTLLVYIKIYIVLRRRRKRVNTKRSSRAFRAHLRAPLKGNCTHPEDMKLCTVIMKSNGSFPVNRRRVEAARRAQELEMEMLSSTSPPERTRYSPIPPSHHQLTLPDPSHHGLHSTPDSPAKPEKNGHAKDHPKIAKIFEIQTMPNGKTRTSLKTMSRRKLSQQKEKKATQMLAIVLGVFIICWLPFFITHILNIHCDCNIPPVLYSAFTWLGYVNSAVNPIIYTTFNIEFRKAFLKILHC
Assay: Test 2: binding activity to human D2 receptor ([3H] spiperone, CHO cell membrane)
Conditions: [3H] spiperone; read-out: D2 binding affinity (Ki value)
Text: Test 2: Evaluation of Binding Activity to Human 5-HT1A Receptor, Human D4 Receptor, and Human D2 Receptor CHO cell membrane fraction in which human 5-HT1A receptor, human D4 receptor, and human D2 receptor were expressed was purchased from PerkinElmer Co., Ltd. In the evaluation test of binding, the test compound dissolved in DMSO, each receptor membrane preparation diluted with buffer solution, and [3H] […]
Form field: Ki (one value per entry).

stdin: Ki for `CNc1cccc(C2CCN(CCNC(=O)C3CCOCC3)CC2)n1` ?
stdout: > 10 µM

Next:
stdin: Ki for `O=C(NCCN1CC=C(c2cccc(C(F)(F)F)n2)CC1)C1CCOCC1` ?
stdout: > 10 µM

stdin: Ki for `Cc1cccc(C2=CCN(CCNC(=O)C3CCOCC3)CC2)n1` ?
stdout: > 10 µM

stdin: Ki for `N#Cc1cccc(C2CCN(CCNC(=O)C3CCOCC3)CC2)n1` ?
stdout: > 10 µM

stdin: Ki for O=C(NCCN1CCC(c2cccc(C(F)(F)F)n2)CC1)C1CCCO1 (centres unmarked) ?
stdout: 3.33 µM

###

Form field: pEC50 (one value per entry).
Biological target: human D4 receptor (Homo sapiens (Human), UniProt P21917)
Sequence (P21917 whole entry): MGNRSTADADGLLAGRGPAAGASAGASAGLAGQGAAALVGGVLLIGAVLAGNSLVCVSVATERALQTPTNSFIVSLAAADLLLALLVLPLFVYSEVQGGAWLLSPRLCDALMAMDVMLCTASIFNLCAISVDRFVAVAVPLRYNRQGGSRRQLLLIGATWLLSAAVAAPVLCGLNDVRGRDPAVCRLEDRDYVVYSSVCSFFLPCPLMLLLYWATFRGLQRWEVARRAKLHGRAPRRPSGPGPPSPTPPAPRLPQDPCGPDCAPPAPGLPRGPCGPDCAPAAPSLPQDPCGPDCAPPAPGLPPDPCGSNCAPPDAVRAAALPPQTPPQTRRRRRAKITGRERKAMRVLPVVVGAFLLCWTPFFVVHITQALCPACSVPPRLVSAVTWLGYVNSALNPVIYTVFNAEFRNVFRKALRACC
Assay: Test 1: agonistic activity for human D4 receptor (aequorin/Gα16 luminescence in CHO-K1 cell)
Conditions: CHO-K1 cell, aequorin luminescence
For clarity, pEC50 is expressed as the negative log10 of concentration in mol/L.

The following molecules have reported results that may help.
stdin: pEC50 for O=C(NCCN1CCC(c2cccc(C(F)(F)F)n2)CC1)C1CCOCC1 [Example 11] ?
stdout: 7.51

stdin: pEC50 for O=C(NCCN1CCC(c2cccc(C(F)(F)F)n2)CC1)C1CCCO1 (stereo not shown) [Example 25] ?
stdout: 7.52

stdin: pEC50 for Cc1cccc(C2=CCN(CCNC(=O)C3CCCCO3)CC2)n1 (stereo not shown) [Example 20] ?
stdout: 7.82

stdin: pEC50 for CO[C@H]1CC[C@H](C(=O)NCCN2CCC(c3cccc(C(F)(F)F)n3)CC2)CC1 [Example 27] ?
stdout: 5.78

stdin: pEC50 for O=C(NCCN1CCC(c2cccc(C(F)(F)F)n2)CC1)C1CCOC1 (stereo not shown) [Example 23] ?
stdout: 7.21

Next:
stdin: pEC50 for COCC(C)(C)C(=O)NCCN1CC=C(c2cccc(C)n2)CC1 [Example 17] ?
stdout: 7.36

stdin: pEC50 for O=C(NCCN1CCC(c2cccc(OC(F)(F)F)n2)CC1)C1CCOCC1 [Example 28] ?
stdout: 7.43

stdin: pEC50 for COc1cccc(C2CCN(CCNC(=O)C3CCOCC3)CC2)n1 [Example 33] ?
stdout: 7.89

stdin: pEC50 for Cc1cccc(C2CCN(CCNC(=O)C3CCC(F)(F)CC3)CC2)n1 [Example 4] ?
stdout: 7.60

stdin: pEC50 for Cc1cccc(C2CCN(CCNC(=O)C3CC4CCC3O4)CC2)n1 (stereo not shown) [Example 3] ?
stdout: 7.47

stdin: pEC50 for O=C(NCCN1CCC(c2cccc(C(F)(F)F)n2)CC1)[C@H]1C[C@@H]2CC[C@H]1O2 [Example 21] ?
stdout: 7.19

stdin: pEC50 for N#Cc1cccc(C2CCN(CCNC(=O)C3CCOCC3)CC2)n1 [Example 35] ?
stdout: 7.19

stdin: pEC50 for O=C(NCCN1CCC(c2cccc(F)n2)CC1)C1CCOCC1 [Example 32] ?
stdout: 8.15

stdin: pEC50 for CNc1cccc(C2CCN(CCNC(=O)C3CCOCC3)CC2)n1 [Example 37] ?
stdout: 7.28

stdin: pEC50 for Nc1cccc(C2CCN(CCNC(=O)C3CCOCC3)CC2)n1 [Example 36] ?
stdout: 7.51

###

Target: human D4 receptor (Homo sapiens (Human))
Test: Test 2: binding activity to human D4 receptor ([3H] dopamine, CHO cell membrane)
observation-type: Ki (nM)
Number only, in nM; omit the unit.

The following compounds have reported results that may help.
stdin: Please provide the recorded Ki for `O=C(NCCN1CC=C(c2cccc(C(F)(F)F)n2)CC1)C1CCC(F)(F)CC1` , tested on human D4 receptor (Homo sapiens (Human)).
stdout: 4.5

stdin: Please provide the recorded Ki for `Cc1cccc(C2=CCN(CCNC(=O)C3CCC(F)(F)CC3)CC2)n1` , tested on human D4 receptor (Homo sapiens (Human)).
stdout: 3

Shift focus to the following entry.
stdin: Please provide the recorded Ki for `O=C(NCCN1CCC(c2cccc(C(F)(F)F)n2)CC1)C1CCOCC1` , tested on human D4 receptor (Homo sapiens (Human)).
stdout: 44

###

Form field: pEC50 (one value per entry).
Molecular target: human 5-HT1A receptor (Homo sapiens (Human), UniProt P08908)
Sequence (P08908 whole entry): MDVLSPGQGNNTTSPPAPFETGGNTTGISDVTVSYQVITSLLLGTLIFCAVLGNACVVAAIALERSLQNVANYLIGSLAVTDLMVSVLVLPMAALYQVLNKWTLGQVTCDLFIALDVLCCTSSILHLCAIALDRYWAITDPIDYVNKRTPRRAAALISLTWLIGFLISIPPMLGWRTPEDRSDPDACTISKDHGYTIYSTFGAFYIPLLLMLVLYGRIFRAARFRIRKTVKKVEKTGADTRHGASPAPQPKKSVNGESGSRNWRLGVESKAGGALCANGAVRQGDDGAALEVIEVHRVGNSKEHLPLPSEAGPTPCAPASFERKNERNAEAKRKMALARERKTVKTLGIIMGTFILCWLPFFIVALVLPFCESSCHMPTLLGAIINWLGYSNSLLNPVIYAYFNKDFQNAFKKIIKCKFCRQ
Assay: Test 1: agonistic activity for human 5-HT1A receptor (aequorin/Gα16 luminescence in CHO-K1 cell)
Settings: CHO-K1 cell, aequorin luminescence
For clarity, pEC50 is expressed as the negative log10 of concentration in mol/L.

The following compounds have reported results that may help.
stdin: pEC50 for O=C(NCCN1CCC(c2cccc(C(F)(F)F)n2)CC1)C1CCCO1 (stereo not drawn) [Example 25] ?
stdout: 7.17

stdin: pEC50 for Cc1cccc(C2CCN(CCNC(=O)C3CC4CCC3O4)CC2)n1 (stereo not drawn) [Example 3] ?
stdout: 7.42

stdin: pEC50 for O=C(NCCN1CCC(c2cccc(F)n2)CC1)C1CCOCC1 [Example 32] ?
stdout: 7.17

Next:
stdin: pEC50 for Cc1cccc(C2CCN(CCNC(=O)C3CCCO3)CC2)n1 (stereo not drawn) [Example 24] ?
stdout: 7.17

stdin: pEC50 for N#Cc1cccc(C2CCN(CCNC(=O)C3CCOCC3)CC2)n1 [Example 35] ?
stdout: 6.28

stdin: pEC50 for Cc1cccc(C2CCN(CCNC(=O)C3CCOC3)CC2)n1 (stereo not drawn) [Example 22] ?
stdout: 6.23

###

Molecular target: UniProt P21917
Experiment: Test 1: agonistic activity for human D4 receptor (aequorin/Gα16 luminescence in CHO-K1 cell)
Assay type: cell-based
Conditions: CHO-K1 cell, aequorin luminescence
Experimental: Test 1: Evaluation of Agonistic Activity for Human 5-HT1A Receptor and Human D4 Receptor Aequorin, Gα16 proteins, and each receptor were transiently expressed in CHO-K1 cell (Chinese hamster ovary), and seeded to 384-well plate. The plate was incubated in a CO2 incubator at 37° C. for 24 hours. Each example compound dissolved in DMSO was added thereto, and the change of luminescence amount was measured with Hamamatsu FDSS/μCELL System (Hamamatsu Photonics).
observation-type: EC50 (µM)
Number only, in µM; omit the unit.

The following compounds have reported results that may help.
stdin: EC50 for `COCC(C)(C)C(=O)NCCN1CC=C(c2cccc(C(F)(F)F)n2)CC1` ?
stdout: 0.037

stdin: EC50 for `Cc1cccc(C2=CCN(CCNC(=O)C3CCOCC3)CC2)n1` ?
stdout: 0.024

stdin: EC50 for Cc1cccc(C2CCN(CCNC(=O)C3CCCO3)CC2)n1 (stereo not drawn) ?
stdout: 0.032

stdin: EC50 for `O=C(NCCN1CC=C(c2cccc(C(F)(F)F)n2)CC1)C1CCC(F)(F)CC1` ?
stdout: 0.035

stdin: EC50 for Cc1cccc(C2CCN(CCNC(=O)C3CCOC3)CC2)n1 (stereo not drawn) ?
stdout: 0.057

Next:
stdin: EC50 for `CO[C@H]1CC[C@H](C(=O)NCCN2CCC(c3cccc(C)n3)CC2)CC1` ?
stdout: 3.39

stdin: EC50 for `COCC(C)(C)C(=O)NCCN1CCC(c2cccc(C)n2)CC1` ?
stdout: 0.0558

stdin: EC50 for `O=C(NCCN1CCC(c2cccc(C(F)F)n2)CC1)C1CCOCC1` ?
stdout: 0.015

meta.source: patent US10800755B2
